# targetEntity: T1, human LAP-TGFB1 Fc fusion (human)
# T1 construct: also called human LAP-TGFβ1-Fc; human LAP-TGFβ-Fc isoform 1
# T1 sequence (chain, as listed by the source limits assumed): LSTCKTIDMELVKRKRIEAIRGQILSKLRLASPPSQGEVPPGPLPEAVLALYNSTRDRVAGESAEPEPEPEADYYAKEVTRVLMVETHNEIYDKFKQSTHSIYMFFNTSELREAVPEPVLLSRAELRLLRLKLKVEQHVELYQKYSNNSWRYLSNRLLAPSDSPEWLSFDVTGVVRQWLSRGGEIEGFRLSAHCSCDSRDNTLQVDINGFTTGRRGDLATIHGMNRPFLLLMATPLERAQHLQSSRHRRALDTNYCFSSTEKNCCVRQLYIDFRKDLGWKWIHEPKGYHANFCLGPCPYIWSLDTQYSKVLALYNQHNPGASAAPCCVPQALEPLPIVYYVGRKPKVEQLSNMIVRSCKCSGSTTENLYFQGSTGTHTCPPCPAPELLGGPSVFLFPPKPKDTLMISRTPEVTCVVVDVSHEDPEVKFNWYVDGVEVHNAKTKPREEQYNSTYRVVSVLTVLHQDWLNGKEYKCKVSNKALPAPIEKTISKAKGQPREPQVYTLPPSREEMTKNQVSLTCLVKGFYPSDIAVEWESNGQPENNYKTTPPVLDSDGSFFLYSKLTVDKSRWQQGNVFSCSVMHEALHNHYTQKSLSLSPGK
# protocolNotes: SPR pH 7.4, antigen captured on Fab 54BLH
Threshold rule: Fab/mAb KD Ratio greater than or equal to 2 is condition met; below that, condition not met.

Hi, just wondering whether 12BLM (antibody, human IgG1, kappa, L234A L235A, V domains shown, IgG1 L234A L235A D265S/kappa; also called 75BLH; 48BMD) VH: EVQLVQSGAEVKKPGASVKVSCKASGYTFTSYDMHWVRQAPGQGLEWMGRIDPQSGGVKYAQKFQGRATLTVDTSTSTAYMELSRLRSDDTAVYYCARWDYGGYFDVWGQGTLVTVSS VL: DIQMTQSPSSLSASVGDRVTITCRASQDIYNYLNWYQQKPGKAVKLLIYYTSVLETGVPSRFSGSGSGTDYTLTISSLQPEDFATYFCQQGDELPWTFGQGTKLEIKR shows Fab/mAb KD Ratio of 2 or higher.
condition met

Decide: Fab/mAb KD Ratio of 18BLM (antibody, human IgG1, kappa, L234A L235A, V domains shown, IgG1 L234A L235A D265S/kappa; also called 81BLH; 54BMD) VH: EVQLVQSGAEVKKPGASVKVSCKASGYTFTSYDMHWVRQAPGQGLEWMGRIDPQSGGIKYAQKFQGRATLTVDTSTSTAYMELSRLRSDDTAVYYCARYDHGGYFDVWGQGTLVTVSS VL: DIQMTQSPSSLSASVGDRVTITCRASQDIYNYLNWYQQKPGKAVKLLIYYTSRLETGVPSRFSGSGSGTDYTLTISSLQPEDFATYFCQQGDTLPWTFGQGTKLEIKR >= 2?
condition met

Say whether 16BLM (antibody, human IgG1, kappa, L234A L235A, V domains shown, IgG1 L234A L235A D265S/kappa; also called 79BLH; 52BMD) VH: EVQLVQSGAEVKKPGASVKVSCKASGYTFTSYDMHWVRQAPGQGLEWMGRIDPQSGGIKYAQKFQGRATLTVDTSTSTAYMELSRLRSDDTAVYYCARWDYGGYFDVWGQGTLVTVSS VL: DIQMTQSPSSLSASVGDRVTITCRASQDIYNYLNWYQQKPGKAVKLLIYYTSVLETGVPSRFSGSGSGTDYTLTISSLQPEDFATYFCQQGDTLPWTFGQGTKLEIKR shows Fab/mAb KD Ratio of 2 or more.
condition not met

Is Fab/mAb KD Ratio at least 2? Consider 15BLM (antibody, human IgG1, kappa, L234A L235A, V domains shown, IgG1 L234A L235A D265S/kappa; also called 78BLH; 51BMD) VH: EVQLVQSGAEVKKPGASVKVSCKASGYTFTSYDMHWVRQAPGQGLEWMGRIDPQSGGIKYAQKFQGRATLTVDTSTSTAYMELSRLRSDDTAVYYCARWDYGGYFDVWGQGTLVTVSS VL: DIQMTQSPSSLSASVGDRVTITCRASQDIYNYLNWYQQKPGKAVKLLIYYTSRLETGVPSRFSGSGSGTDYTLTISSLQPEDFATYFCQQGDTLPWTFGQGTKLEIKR
condition met

Kindly determine if Fab/mAb KD Ratio recorded for 07BLM (antibody, human IgG1, kappa, L234A L235A, V domains shown, IgG1 L234A L235A D265S/kappa; also called 70BLH; 43BMD) VH: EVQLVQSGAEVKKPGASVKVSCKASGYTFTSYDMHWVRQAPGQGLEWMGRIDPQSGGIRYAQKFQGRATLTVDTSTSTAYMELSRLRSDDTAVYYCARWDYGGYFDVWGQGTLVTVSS VL: DIQMTQSPSSLSASVGDRVTITCRASQDIYSYLNWYQQKPGKAVKLLIYYTSNLETGVPSRFSGSGSGTDYTLTISSLQPEDFATYFCQQGDTLPWTFGQGTKLEIKR is above or exactly 2.
condition not met

Is it the case that 19BLM (antibody, human IgG1, kappa, L234A L235A, V domains shown, IgG1 L234A L235A D265S/kappa; also called 82BLH; 55BMD) VH: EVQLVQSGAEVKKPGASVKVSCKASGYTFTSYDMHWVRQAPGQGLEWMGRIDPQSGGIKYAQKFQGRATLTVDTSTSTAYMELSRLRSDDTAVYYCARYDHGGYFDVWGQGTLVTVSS VL: DIQMTQSPSSLSASVGDRVTITCRASQDIYNYLNWYQQKPGKAVKLLIYYTSYLETGVPSRFSGSGSGTDYTLTISSLQPEDFATYFCQQGDTLPWTFGQGTKLEIKR has Fab/mAb KD Ratio reaching or exceeding 2?
condition met

For this binder, is measured Fab/mAb KD Ratio 2 or higher? 11BLM (antibody, human IgG1, kappa, L234A L235A, V domains shown, IgG1 L234A L235A D265S/kappa; also called 74BLH; 47BMD) VH: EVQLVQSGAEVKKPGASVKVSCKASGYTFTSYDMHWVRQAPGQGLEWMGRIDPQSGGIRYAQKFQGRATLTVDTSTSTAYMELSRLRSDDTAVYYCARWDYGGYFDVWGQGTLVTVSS VL: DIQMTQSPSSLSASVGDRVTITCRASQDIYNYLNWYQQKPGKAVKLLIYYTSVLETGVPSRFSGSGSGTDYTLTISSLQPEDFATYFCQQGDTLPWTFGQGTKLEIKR
condition not met
